This collection of values is drawn from ChEMBL document CHEMBL1772954.

Test system: Aspergillus flavus
ASSAY PROCEDURE: Antifungal activity against Aspergillus flavus ATCC 9170
Assay type: functional
Known log10 MFC of a selection of compounds
Heads up: the numbers are on a log10 scale; they represent MFC in µg/mL.

O=C1C=CC(=O)N1CCCc1ccccc1
1.80
O=C1C=CC(=O)N1c1ccc(F)cc1
1.19
COc1cccc(N2C(=O)C=CC2=O)c1
1.80
CC(=O)N1CCN(c2ccc(OCC3COC(Cn4ccnc4)(c4ccc(Cl)cc4Cl)O3)cc2)CC1 (stereo not drawn)
0.59

Record O=C1C=CC(=O)N1c1ccc(Cl)cc1 , field log10 MFC: 2.10

Record O=C1C=CC(=O)N1CCCCc1ccccc1 , field log10 MFC: 1.19

###

Test system: Aspergillus flavus
ASSAY PROCEDURE: Antifungal activity against Aspergillus flavus ATCC 9170
Assay type: functional
Known MFC of a selection of molecules
Report the figure in µg/mL without appending any unit label.

Worked examples, 3 molecules total:
CCCCN1C(=O)C=CC1=O
7.81
CC1=CC(=O)N(CCCCc2ccccc2)C1=O
125
O=C1C=CC(=O)N1c1ccc2c(c1)OCO2
125

We next turn to a different molecule, shown below.
Tested on Aspergillus flavus, the item CC1=CC(=O)N(c2ccccc2)C1=O showed MFC equal to 125

###

Known MIC of a selection of molecules
Test system: Trichophyton mentagrophytes
ASSAY PROCEDURE: Antifungal activity against Trichophyton mentagrophytes ATCC 9972
Format: functional

O=C1C=CC(=O)N1c1ccc(F)cc1
3.9 µg/mL
O=C1C(c2ccccc2)=C(c2ccccc2)C(=O)N1CCCc1ccccc1
> 250 µg/mL
CC1=CC(=O)N(CCc2ccccc2)C1O (centres undefined)
> 250 µg/mL
CC1=CC(=O)N(CCCc2ccccc2)C1O (centres undefined)
250 µg/mL
COc1ccc(N2C(=O)C=CC2=O)cc1
3.9 µg/mL
O=C1C(Cl)=C(Cl)C(=O)N1CCCc1ccccc1
3.9 µg/mL
O=C1CCC(=O)N1CCc1ccccc1
> 250 µg/mL
O=C1CCC(=O)N1CCCc1ccccc1
> 250 µg/mL
O=C1C=CC(=O)N1CCc1ccccc1
7.81 µg/mL
O=C1C=CC(=O)N1c1ccc2c(c1)OCO2
1.95 µg/mL

Record O=C1CCC(=O)N1CCCCc1ccccc1 , field MIC: > 250 µg/mL

Record Cc1ccc(N2C(=O)C=CC2=O)cc1 , field MIC: 1.95 µg/mL

Record Cc1ccccc1N1C(=O)C=CC1=O , field MIC: 1.95 µg/mL

Record CC1=CC(=O)N(CCCCc2ccccc2)C1=O , field MIC: 31.2 µg/mL

###

Tested on: Candida tropicalis
ASSAY PROCEDURE: Antifungal activity against Candida tropicalis C 131 2000
Format: functional
Rule: MIC below 100 mg/L gives true. Equal to or above 100 mg/L gives false.

Study these solved cases before continuing.
O=C1CCC(=O)N1Cc1ccccc1
false
O=C1C=CC(O)N1CCc1ccccc1 (centres undefined)
false
CC1=CC(O)N(CCc2ccccc2)C1=O (centres undefined)
false
O=C1C=CC(O)N1CCCCc1ccccc1 (centres undefined)
false
O=C1CCC(=O)N1CCc1ccccc1
false
O=C1C(Cl)=C(Cl)C(=O)N1CCCc1ccccc1
true
CC1=C(C)C(=O)N(Cc2ccccc2)C1=O
false
CC1=C(C)C(=O)N(CCc2ccccc2)C1=O
false
O=C1C=CC(O)N1c1ccccc1 (centres undefined)
false
O=C1C(Cl)=C(Cl)C(=O)N1c1ccccc1
false

stdin: Is it true that MIC reported for CC(C)(C)c1ccccc1N1C(=O)C=CC1=O is less than 100 mg/L?
stdout: true

stdin: Is it true that MIC reported for CC1=CC(=O)N(CCCc2ccccc2)C1O (centres undefined) is less than 100 mg/L?
stdout: false

stdin: Is it true that MIC reported for O=C1C=CC(O)N1CCCc1ccccc1 (centres undefined) is less than 100 mg/L?
stdout: false

stdin: Is it true that MIC reported for O=C1C=CC(=O)N1c1ccc(Br)cc1 is less than 100 mg/L?
stdout: true
